Every entry's value here was drawn from PubChem BioAssay.

- assay.notes: small-molecule binders of probe aNOTCH2, primary screen, biochemical, small-molecule microarray, 635/667 nm fluorescence (AID 1121);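 further: score merges feature fluorescence read at 667 nm with its signal to noise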
- condition.notes: higher = more signal
Returns met if the recorded composite z-score is greater than or equal to -0.1, and not met otherwise.

{"columns": ["compound", "group.label"],
 "data": [
  ["O=C1C2=CC[C@H]3C(=O)N(C4CCCCC4)C(=O)[C@H]3[C@H]2[C@H](O)[C@@H]2O[C@H]12", "not met"],
  ["CCOC(=O)[C@H](Cc1ccccc1)NC(=O)CCC1CC(OC(=O)NCc2cccc3ccccc23)CC2(CCCC(COC(=O)NCc3ccc4c(c3)OCO4)O2)O1 (stereo partly specified)", "not met"],
  ["CCOC(=O)[C@H](CC(C)C)NC(=O)CCC1CC(OC(=O)NCc2ccc3c(c2)OCO3)CC2(CCCC(COC(=O)NCCC(C)C)O2)O1 (stereo partly specified)", "not met"],
  ["C#CCCCON=C1[C@H]2CCn3c(=O)n(Cc4cc5c(cc4Cl)OCO5)c(=O)n3[C@H]2[C@H](O)[C@@H]2O[C@H]12", "not met"],
  ["CCCNC(=O)OC[C@H]1O[C@H](CCON=C2C[C@@H](O)[C@@H](O)[C@@H]3[C@@H]4C(=O)N(CC)C(=O)[C@@H]4CC[C@@H]23)C=C[C@@H]1Oc1ccc(OC)cc1", "not met"],
  ["CCOC(=O)CCN1C(=O)[C@H]2[C@H]3[C@H](O)[C@H](O)CC(=NNC(=O)OCc4ccc(OC)cc4)[C@H]3CC[C@H]2C1=O", "met"]
]}

====

- assay.notes: small-molecule binders of probe aNOTCH2, primary screen, biochemical, small-molecule microarray, 635/667 nm fluorescence (AID 1121);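 further: score merges feature fluorescence read at 667 nm with its signal to noise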
- condition.notes: higher = more signal
quantity.kind: composite z-score

{"columns": ["compound", "reported.measurement"],
 "data": [
  ["C[C@@H](c1ccccc1)N1C(=O)[C@H]2[C@H]3[C@H](O)[C@H](O)CC(=NNC(=O)OCc4ccccc4)[C@@H]3CC[C@H]2C1=O", -0.148],
  ["O=C(NN=C1C[C@@H](O)[C@@H](O)[C@@H]2[C@@H]3C(=O)N(c4ccc(F)cc4F)C(=O)[C@@H]3CC[C@H]12)OCc1ccccc1", -0.0958],
  ["CCOC(=O)[C@H](Cc1ccccc1)NC(=O)CCC1CC(OC(=O)NCCc2ccc(F)cc2)CC2(CCCC(COC(=O)NCCOc3ccccc3)O2)O1 (stereo partly specified)", -0.0189],
  ["C=CC[C@@H]1C=C[C@H](Oc2ccc(C)cc2)[C@@H](COC(=O)NCc2cccc3ccccc23)O1", -0.127],
  ["CO[C@@H]1COC(=O)[C@@H]2CCCN2C(=O)[C@@H](C)COC(=O)CCC[C@H]1C", -0.16],
  ["COC(=O)[C@H](C)NC(=O)CCC1CC(OC(=O)NCc2cccc3ccccc23)CC2(CCCC(COC(=O)NCCCN3CCCC3=O)O2)O1 (stereo partly specified)", -0.132],
  ["CO[C@H]1COC(=O)[C@H](C)COC(=O)[C@@H](OCc2ccccc2)C=C[C@@H]1C", -0.12],
  ["CC(CCN1CCc2nc(-c3ccccc3)c(-c3ccccc3)cc2C1)=NOC(C)CN1CCCc2nc(C)c(C)cc21 (stereo unspecified)", -0.0278],
  ["Cc1cc(C)c(-c2cc([C@H](C)ON=C[C@@H](C)[C@H](OCc3ccccc3)C(C)C)on2)c(C)c1", -0.185],
  ["CSCC[C@@H]1NC(=O)CC=C[C@@H](C)COC(=O)[C@H](C)COC1=O", 0.059],
  ["CON=C1c2cc(OC)ccc2O[C@H](c2cccc(OC)c2)[C@H]1O", 0.0267],
  ["COC(=O)CC=C[C@@H](C)[C@@H](C=NOC(C)CN1CCCCc2nc(C)c(C)cc21)NS(=O)(=O)c1ccc(C)cc1 (stereo partly specified)", -0.19],
  ["CC(C)=CCCC(C)=CCON=C1C[C@@H](O)[C@@H](O)[C@@H]2[C@@H]3C(=O)N([C@@H](C)c4ccccc4)C(=O)[C@@H]3CC[C@@H]12", -0.0194],
  ["C[C@H]1C=CCC(=O)OC[C@H](C)C(=O)N2CCC[C@H]2C(=O)OC1", -0.115],
  ["CCN1C(=O)[C@H]2[C@H]3[C@H](O)[C@H](O)CC(=NNC(=O)OCc4ccccc4)[C@H]3CC[C@H]2C1=O", -0.129],
  ["COc1ccc(OC[C@@H]2CC3[C@@H](c4ccc(Br)cc4)[C@H](C)CC[C@H]3C(=O)O2)cc1 (stereo partly specified)", -0.18]
]}

====

- target.system: Left-right determination factor 2 (Homo sapiens) (UniProt O00292)
- Sequence (O00292 whole entry, looked up): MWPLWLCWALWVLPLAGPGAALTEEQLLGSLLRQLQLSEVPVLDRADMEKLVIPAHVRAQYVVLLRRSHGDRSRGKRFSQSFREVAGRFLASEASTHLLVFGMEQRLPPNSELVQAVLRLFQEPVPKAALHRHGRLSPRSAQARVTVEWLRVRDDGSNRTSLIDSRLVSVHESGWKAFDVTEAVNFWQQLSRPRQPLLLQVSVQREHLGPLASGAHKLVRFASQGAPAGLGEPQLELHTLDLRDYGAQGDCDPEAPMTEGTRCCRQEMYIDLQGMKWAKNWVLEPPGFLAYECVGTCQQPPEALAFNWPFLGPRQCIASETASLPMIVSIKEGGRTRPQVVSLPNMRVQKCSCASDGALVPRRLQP
- assay.notes: LEFTY2 binders on small-molecule microarrays, primary screen, biochemical, small-molecule microarray, 635 nm fluorescence scan (AID 1110)
- condition.notes: LEFTY2 binding, higher = more signal

{"columns": ["compound", "target.system", "composite z-score"],
 "data": [
  ["CC(CCN1CCCc2nc(C)c(C)cc21)=NO[C@H](C)c1cn([C@@H]2COC[C@H]2O)nn1", "Left-right determination factor 2 (Homo sapiens) (UniProt O00292)", 0.831],
  ["CCCC[C@H]1CN2[C@@H](CC[C@@H](C)[C@@H]2c2ccc(Br)cc2)C(=O)O1", "Left-right determination factor 2 (Homo sapiens) (UniProt O00292)", 0.671],
  ["CCCCOC(OCCCC)C(O)CSc1ccc2ccccc2c1 (stereo not drawn)", "Left-right determination factor 2 (Homo sapiens) (UniProt O00292)", 0.64],
  ["CC(=O)OC[C@H]1O[C@@H](ON=C2[C@H]3CCn4c(=O)n(-c5ccccc5)c(=O)n4[C@H]3[C@H](O)[C@@H]3O[C@H]23)[C@H](OC(C)=O)[C@@H](OC(C)=O)[C@@H]1OC(C)=O", "Left-right determination factor 2 (Homo sapiens) (UniProt O00292)", 0.664],
  ["COc1ccc(OC[C@H]2CN3[C@@H](CC[C@@H](C)[C@@H]3c3ccc(Br)cc3)C(=O)O2)cc1", "Left-right determination factor 2 (Homo sapiens) (UniProt O00292)", 0.579],
  ["COc1ccc(O[C@H]2C=C[C@@H](c3ccccc3)O[C@@H]2CO)cc1", "Left-right determination factor 2 (Homo sapiens) (UniProt O00292)", 0.213],
  ["CCC1=NOC(CCC2CC(OC(=O)NCc3cccc4c3OCO4)CC3(CCCC(COC(=O)NCCc4ccc(Cl)cc4)O3)O2)C1 (stereo not drawn)", "Left-right determination factor 2 (Homo sapiens) (UniProt O00292)", 0.304],
  ["CO[C@@H](C1CCCCC1)[C@@H](C)[C@H](OCc1cccc(Br)c1)[C@@H](C)CO", "Left-right determination factor 2 (Homo sapiens) (UniProt O00292)", 0.481]
]}

====

- assay.notes: fission yeast growth modulation, primary screen, strain 972, OD600, 24 h, no modulator (AID 1090);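 further: basal condition with compound alone and no growth modifier present; test concentration not given here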
- condition.notes: S. pombe 972 growth, higher = more signal, called active from +8 up or from −8 down
quantity.kind: z-score

{"columns": ["compound", "reported.measurement"],
 "data": [
  ["O=C1CCCC=C1C(O)C1CCCCC1 (stereo not given)", 0.214],
  ["Cc1cc(C)c(-c2cc([C@H](C)ON=C[C@@H](C)[C@H](OCc3ccccc3)C(C)C)on2)c(C)c1", 0.217],
  ["CC(=O)OC[C@H]1O[C@H](CC=NO[C@@H](C)c2cc(-c3c(C)cc(C)cc3C)no2)C=C[C@@H]1OC(C)=O", -0.0489],
  ["Cc1ccc2[nH]c3nc(CCCn4ccnc4-c4ccccc4)nnc3c2c1", 0.0855],
  ["CC(CCN1CCc2nc(-c3ccccc3)c(-c3ccccc3)cc2C1)=NOC(C)CN1CCCc2nc(C)c(C)cc21 (stereo not given)", -12.6]
]}

====

- System: wheat germ agglutinin (Triticum aestivum), Alexa647-labelled
- assay.notes: wheat germ agglutinin binders on compound microarrays, profiling panel, artefact control for SMM control-protein annotation, biochemical, small-molecule microarray, 635/667 nm fluorescence (AID 1140);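 further: score merges 667 nm feature emission with signal to noise over triplicate slides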
- condition.notes: WGA-A647 binding, 635 nm fluorescence, higher = more signal
Returns 1.0 if the recorded composite z-score is greater than or equal to -0.01, and 0.0 otherwise.

{"columns": ["molecule", "group.label"],
 "data": [
  ["CCN1C(=O)[C@H]2[C@H]3[C@H](O)[C@H](O)CC(=NNC(=O)OCc4ccccc4)[C@@H]3CC[C@H]2C1=O", 1.0],
  ["C=CC[C@@H]1C=C[C@H](ON=C(C)CCN2CCCc3nc(C)c(C)cc32)[C@@H](CO)O1", 0.0],
  ["COC(OC)[C@@H](C)[C@H](OC)[C@@H](C)[C@H](OC)c1ccccc1", 0.0],
  ["CC(C)[C@@H](OCc1ccccc1)[C@H](C)C=NOC[C@@H](O)[C@H]1O[C@@H]2OC(C)(C)O[C@@H]2[C@H]1O", 1.0],
  ["O=C1CCCC=C1C(O)C1CCCCC1 (stereo not given)", 0.0]
]}
